# experiment summary: protein stability index of a GFP-peptide fusion (GPS, HEK-293T) (PSI 1-6); higher = more stable;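 note: 24-mer peptide tiles fused after GFP, lentivirally expressed, FACS-sorted into six equal bins by GFP/DsRed ratio, decoded by Illumina sequencing, PSI is the read-weighted mean bin number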
# conditions: treatment: MLN4924 1 uM, 8 h; c terminus: a fixed tail appended
observable: protein stability index
Reply briefly: the number, and no unit.

These solved cases illustrate the format of a correct answer.
| sequence | protein stability index |
| --- | --- |
| RAGLDLPTIDTGYDSQPQDVLGIR [TRAF3IP2] | 4.29 |
| EEEPTGAGLNKDKETEERTDGERV [SDE2] | 5.61 |
| KQQKDPSEEAAVLQYASLVGQKCS [ATE1] | 4.77 |
| NSSNSDIVHVEKEEVPEGMEEAAV [BCL2L13] | 5.61 |
| FRSGALDLDSCSRDGALLGCSLTA [MYORG] | 2.34 |
| KVLGNRWAEIAKMLPGRTDNAVKN [MYBL2] | 2.98 |
| PFWEVLVRSTETVERDNMEEDNVE [HDAC6] | 5.27 |
| LPRHQDQPHHQPPNRAGAPGESLE [TRAF3IP2] | 5.43 |
| GVILHSLKTQSLEGKRKAFYTCAS [OR4A15] | 2.19 |
| VPKNYVVVLSDGPALHPAHAPQIS [NCK2] | 2.61 |

// sample YLEGFDPFNQSTFNNVVEQNFKNR [DLC1] , its protein stability index was 3.15

// sample RHKQPTLLMVRASRRSGKTSAVLK [C6orf223] , its protein stability index was 3.45

// sample DQEIKFFRCLFEAEITQIQSHISD [KRT71] , its protein stability index was 2.34

// sample FCGAPPVTPIIVLSIINFFERLCL [PHTF1] , its protein stability index was 2.5

// sample SISLMYGGSKRKSSFFSSPPYFED [SLA] , its protein stability index was 2.59
